# Bottom (best-fit) per record follows
Target: T1, human TIGIT over-expressed on cells (human, UniProt Q495A1 22-244)
T1 construct: also called CHO-K1/human TIGIT cells; CHO cells expressing human TIGIT
T1 sequence: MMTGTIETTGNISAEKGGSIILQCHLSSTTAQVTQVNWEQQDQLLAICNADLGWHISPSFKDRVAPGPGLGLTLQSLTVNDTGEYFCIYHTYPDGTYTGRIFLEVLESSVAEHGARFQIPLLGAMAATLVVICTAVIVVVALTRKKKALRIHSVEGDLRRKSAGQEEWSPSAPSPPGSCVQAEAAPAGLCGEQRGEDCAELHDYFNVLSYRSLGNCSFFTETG
Assay: FACS, CHO-K1 cells over-expressing human TIGIT
When you answer, write just the number.

// below: answered binders
100C4E7D11VH1_VL1 (antibody, V domains shown, Humanized antibody, variable domains fused with the constant region of human IgG1; also called 100C4VH1_VL1) VH: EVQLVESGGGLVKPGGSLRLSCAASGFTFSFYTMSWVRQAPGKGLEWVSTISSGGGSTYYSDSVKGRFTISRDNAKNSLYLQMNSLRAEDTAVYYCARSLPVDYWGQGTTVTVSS VL: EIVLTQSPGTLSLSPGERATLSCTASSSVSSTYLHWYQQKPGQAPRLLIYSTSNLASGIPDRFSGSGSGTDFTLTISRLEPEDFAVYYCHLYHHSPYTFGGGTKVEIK	4110
64G1E9B4VH1_VL1.M1 (antibody, human IgG1, V domains shown, Humanized antibody, variable domains fused with the constant region of human IgG1; also called 64G1VH1_VL1.M1) VH: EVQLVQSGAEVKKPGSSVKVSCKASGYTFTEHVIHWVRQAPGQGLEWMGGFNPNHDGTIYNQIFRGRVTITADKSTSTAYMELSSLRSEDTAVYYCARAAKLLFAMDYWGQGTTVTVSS VL: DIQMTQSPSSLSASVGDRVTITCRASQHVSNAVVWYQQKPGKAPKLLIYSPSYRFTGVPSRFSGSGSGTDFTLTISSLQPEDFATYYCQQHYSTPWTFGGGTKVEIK	3190

Turning to the following binder.
Query string: Give its Bottom (best-fit) value. Item: 64G1E9B4VH1.M1_VL1.M1 (antibody, human IgG1, V domains shown, Humanized antibody, variable domains fused with the constant region of human IgG1; also called 64G1VH1.M1_VL1.M1) VH: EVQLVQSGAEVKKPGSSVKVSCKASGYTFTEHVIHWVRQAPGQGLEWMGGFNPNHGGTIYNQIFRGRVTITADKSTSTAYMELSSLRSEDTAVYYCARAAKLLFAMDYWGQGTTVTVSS VL: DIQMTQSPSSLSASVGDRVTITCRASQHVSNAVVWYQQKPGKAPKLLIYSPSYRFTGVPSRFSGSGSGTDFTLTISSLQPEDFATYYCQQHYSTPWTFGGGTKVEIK
Result string: 1530
